- Test system: Mus musculus
- Test Details: Toxicity in mouse assessed as increase in bleeding time at 30 mg/kg, po
- Type: organism-based
- Set-up: dose 30 mg/kg, route oral
- Condition Info: in vivo
Each entry below carries its recorded Activity.
Unit % implied. Number only.

>  <Smiles Code>
COc1ccc2c(c1)CN(S(=O)(=O)c1ccc(C)cc1)[C@@H](Cc1c[nH]c3ccccc13)CO2

>  <Assayed System>
Mus musculus

>  <Test Readout>
Activity

>  <Endpoint Result>
12

$$$$
>  <Smiles Code>
Cc1ccc(S(=O)(=O)N2Cc3ccccc3OC[C@@H]2C)cc1

>  <Assayed System>
Mus musculus

>  <Test Readout>
Activity

>  <Endpoint Result>
25

$$$$
>  <Smiles Code>
Cc1ccc(S(=O)(=O)N2Cc3ccccc3OC[C@@H]2Cc2c[nH]c3ccccc23)cc1

>  <Assayed System>
Mus musculus

>  <Test Readout>
Activity

>  <Endpoint Result>
33

$$$$

Please report Activity for the following compound: Cc1ccc(S(=O)(=O)N2Cc3ccccc3OC[C@@H]2C(C)C)cc1 22

Please report Activity for the following compound: Cc1ccc(S(=O)(=O)N2C[C@H](Cc3ccccc3)N(S(=O)(=O)c3ccc(C)cc3)CCc3ccccc32)cc1 22

Please report Activity for the following compound: Cc1ccc(S(=O)(=O)N2Cc3ccccc3OC[C@@H]2CC(C)C)cc1 60

Please report Activity for the following compound: COc1ccc2c(c1)CN(S(=O)(=O)c1ccc(C)cc1)[C@@H](CC(C)C)CO2 6

Please report Activity for the following compound: CC(=O)Oc1ccccc1C(=O)O 100
